Hey, just so you know, these numbers are from patent US12139520B2.

Target: T1, hAMY3R (human, UniProt P30988)
T1 sequence 1: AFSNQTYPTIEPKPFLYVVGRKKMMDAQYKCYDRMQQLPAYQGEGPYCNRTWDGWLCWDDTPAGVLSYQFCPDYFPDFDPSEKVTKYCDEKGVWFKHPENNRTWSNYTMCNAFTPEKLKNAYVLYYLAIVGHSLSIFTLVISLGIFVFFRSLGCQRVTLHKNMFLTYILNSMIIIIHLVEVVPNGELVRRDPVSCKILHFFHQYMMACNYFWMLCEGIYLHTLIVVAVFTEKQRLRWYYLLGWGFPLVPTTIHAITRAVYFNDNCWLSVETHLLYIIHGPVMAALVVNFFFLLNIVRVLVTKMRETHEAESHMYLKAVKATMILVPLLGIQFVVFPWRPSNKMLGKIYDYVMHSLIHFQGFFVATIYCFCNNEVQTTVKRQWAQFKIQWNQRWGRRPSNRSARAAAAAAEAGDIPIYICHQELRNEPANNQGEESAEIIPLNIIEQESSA
T1 sequence 2: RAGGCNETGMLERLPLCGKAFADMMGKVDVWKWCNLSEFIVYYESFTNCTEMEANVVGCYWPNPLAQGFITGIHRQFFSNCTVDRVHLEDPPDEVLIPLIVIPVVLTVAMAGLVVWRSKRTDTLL
Test: cell-based or functional assay
Bridge positions count the residues as written; N and C are the ends. Square brackets hold non-standard residues; d marks the D form. Ends that are not written are not given here. Hyp = O=C(O)[C@@H]1C[C@@H](O)CN1; Cit = NC(=O)NCCC[C@H](N)C(=O)O
Metric name: hAMY3R EC50 (cAMP)

Reference set (3 entries):
{"Binder": "GCRTGTCTVQRLAHQIYQFTDKDKDNVAPRSNVSPQGY [SEQ ID NO: 183]", "hAMY3R EC50 (cAMP)": "0.088 nM"}
{"Binder": "GCRTGTCTVQ[Cit]LAHQIYQFTDKDKDNVAPRTKIGPNG[Hyp]-NH2 (disulfide 2-7 (inferred); ends not checked) [SEQ ID NO: 277]", "hAMY3R EC50 (cAMP)": "0.058 nM"}
{"Binder": "GCRTGTCTVQRLAHQIYQFTDKDKDNVAPRSNVGPNGY [SEQ ID NO: 177]", "hAMY3R EC50 (cAMP)": "0.077 nM"}

Each binder below has a reported value. Please supply its hAMY3R EC50 (cAMP).
1. GCRFGTCTVQRLAHQIYQFTDKDKDNVAPRSKIGPQGY [SEQ ID NO: 387]
2. GCRTGTCTVQWLAHQIYQFTDKDKDNVAPRTKVGPQGY [SEQ ID NO: 354]
3. GCRTGTCTVQWLAHQIYQFTDKDKDNVAPRSNVSPNG[Hyp]-NH2 (disulfide 2-7 (inferred); ends not checked) [SEQ ID NO: 360]

0.04 nM
0.091 nM
0.165 nM
